target.entity: kinase domain protein of RC kinase (Homo sapiens, UniProt Q56UN5)
Sequence (Q56UN5 1061-1324 limits assumed): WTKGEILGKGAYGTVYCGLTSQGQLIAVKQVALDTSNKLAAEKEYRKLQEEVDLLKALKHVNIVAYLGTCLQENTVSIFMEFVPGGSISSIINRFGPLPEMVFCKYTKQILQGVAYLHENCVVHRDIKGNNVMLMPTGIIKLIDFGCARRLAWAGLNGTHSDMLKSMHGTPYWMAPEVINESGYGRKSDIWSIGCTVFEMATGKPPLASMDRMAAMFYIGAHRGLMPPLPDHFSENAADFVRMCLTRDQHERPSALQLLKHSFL
assay.procedure: Enzymatic assay for kinase inhibitory activity (Crebtide substrate, LANCE readout), kinase domain protein
Type: biochemical
assay.setup: test compound 1 μM, ATP 1 μM, Crebtide 50 nM
In this section, each of the compounds is paired with its reported inhibition at 1 µM.

[[record]]
molecular_string = "COc1cc(OC)c(OC)cc1CNc1[nH]nc(Nc2cccc(Cl)c2)c1C(N)=O"
endpoint_result = "5 to 20%"

[[record]]
molecular_string = "NC(=O)c1c(Nc2ccc(NC(=O)c3cccc(F)c3)cc2)n[nH]c1NCc1ccc(O)cc1"
endpoint_result = "≥ 50%"

[[record]]
molecular_string = "N#Cc1c(Nc2cccc(Cl)c2)n[nH]c1NCc1c(O)cccc1Cl"
endpoint_result = "20 to 50%"

[[record]]
molecular_string = "COc1ccc(C(C)C)cc1CNc1[nH]nc(Nc2cccc(Cl)c2)c1C(N)=O"
endpoint_result = "20 to 50%"

[[record]]
molecular_string = "COc1cc(OC)c(OC)cc1CNc1[nH]nc(Nc2cccnc2)c1C(N)=O"
endpoint_result = "5 to 20%"

[[record]]
molecular_string = "NC(=O)c1c(Nc2ccc(N3CCOC(=O)C3)cc2)n[nH]c1NCc1ccc(O)cc1"
endpoint_result = "≥ 50%"

[[record]]
molecular_string = "N#Cc1c(Nc2cccc(Cl)c2)n[nH]c1NCc1ccc(Cl)cc1Cl"
endpoint_result = "5 to 20%"

[[record]]
molecular_string = "NC(=O)c1c(Nc2cccc(Cl)c2)n[nH]c1NCc1ccc(O)nc1"
endpoint_result = "≤ 5%"

[[record]]
molecular_string = "CCOC(=O)c1cccc(Nc2n[nH]c(NCc3ccc(O)cc3)c2C(N)=O)c1"
endpoint_result = "≥ 50%"

[[record]]
molecular_string = "NC(=O)c1c(Nc2ccc(Cc3ccccc3)cc2)n[nH]c1NCc1ccc(O)cc1"
endpoint_result = "≥ 50%"


Quick one: inhibition at 1 µM of NC(=O)c1c(Nc2cccc(Cl)c2)n[nH]c1NCc1ccc[nH]1 ?
5 to 20%

# query: inhibition at 1 µM of entry COc1cccc(Nc2n[nH]c(NCc3ccc(O)cc3)c2C(N)=O)c1
≥ 50%

I'd like to know its inhibition at 1 µM. The compound in question is NC(=O)c1c(Nc2cccc(Cl)c2)n[nH]c1NCc1ccc(Oc2ccc(C(F)(F)F)cn2)cc1
5 to 20%

Can you look up the measured inhibition at 1 µM of Cc1cc(CNc2[nH]nc(Nc3cccc(Cl)c3)c2C(N)=O)cc(C)c1O for me?
20 to 50%

Item Cc1cc(C)cc(CNc2[nH]nc(Nc3cccc(Cl)c3)c2C(N)=O)c1 has what recorded inhibition at 1 µM?
5 to 20%

Return reported inhibition at 1 µM; argument: COc1cccc(CNc2[nH]nc(Nc3cccnc3)c2C(N)=O)c1
20 to 50%

Which inhibition at 1 µM value is on record for CS(=O)(=O)c1ccc(CNc2n[nH]c(NCc3ccc(O)cc3)c2C(N)=O)cc1 ?
5 to 20%
